Consider the following compounds and their measured MIC readings.
- System: S. aureus clinical isolates
- Test protocol: microbe, parasite or virus in culture
- Assay type: cell-based
- Condition info: Staphylococcus aureus, MRSA, S. aureus IHMA 1622252, MRSA / VSSA; read-out: MIC
The figure you give is taken to be in µg/mL; do not add the unit.

Chemical string	Display unit	MIC
CC(=O)NC[C@H]1CN(c2ccc(N3CCOCC3)c(F)c2)C(=O)O1	µg/mL	4
C[C@H]1COc2c(N3CCN(C)CC3)c(F)cc3c(=O)c(C(=O)O)cn1c23	µg/mL	16

Query string: Param readout= MIC; system= S. aureus clinical isolates; entry= Cc1[nH]c(C(=O)Nc2nc3c(OCc4ccccc4)cc(C(=O)O)cc3s2)c(Cl)c1Cl ; returns value.
Result string: 0.5

Query string: Please give the result for Cc1[nH]c(C(=O)Nc2nc3ccc(C(=O)O)cc3s2)c(Cl)c1Cl too.
Result string: 1

Query string: What would you report for CC[C@H]1OC(=O)[C@H](C)[C@@H](O[C@H]2C[C@@](C)(OC)[C@@H](O)[C@H](C)O2)[C@H](C)[C@@H](O[C@@H]2O[C@H](C)C[C@H](N(C)C)[C@H]2O)[C@](C)(O)C[C@@H](C)CN(C)[C@H](C)[C@@H](O)[C@]1(C)O ?
Result string: 1

---

- System: S. aureus clinical isolates
- Test protocol: microbe, parasite or virus in culture
- Assay type: cell-based
- Condition info: Staphylococcus aureus, MRSA / NRS 29 / VISA, S. aureus IHMA 1308250, NRS29, MRSA / VISA; read-out: MIC
Readout type: MIC (µg/mL)
Report only the number, with the unit µg/mL understood.

As a guide, the following entries are already answered.
> print(dat)
                            chemical.string              target.of.assay  assay.value
1  Cc1[nH]c(C(=O)Nc2nc3ccc(C(=O)O)cc3s2)c(Cl)c1Cl  S. aureus clinical isolates          0.5
2  C[C@H]1COc2c(N3CCN(C)CC3)c(F)cc3c(=O)c(C(=O)O)cn1c23  S. aureus clinical isolates           16

Query string: # returns recorded MIC (system: S. aureus clinical isolates) for Cc1[nH]c(C(=O)Nc2nc3c(OCc4ccccc4)cc(C(=O)O)cc3s2)c(Cl)c1Cl
Result string: 0.25

---

- System: S. aureus clinical isolates
- Test protocol: microbe, parasite or virus in culture
- Assay type: cell-based
- Condition info: Staphylococcus aureus, MRSA / NRS 19 / VISA, S. aureus IHMA 649387, NRS19, MRSA / VISA; read-out: MIC
// reported MIC per item

Worked examples, 4 compounds total:
Compound	Assay value
Cc1onc(-c2ccccc2)c1C(=O)N[C@@H]1C(=O)N2[C@@H]1SC(C)(C)[C@@H]2C(=O)O [Oxacillin]	> 64 µg/mL
Cc1[nH]c(C(=O)Nc2nc3c(OCc4ccccc4)cc(C(=O)O)cc3s2)c(Cl)c1Cl [ULD2]	0.25 µg/mL
CC(=O)NC[C@H]1CN(c2ccc(N3CCOCC3)c(F)c2)C(=O)O1 [Linezolid]	0.5 µg/mL
CC[C@H]1OC(=O)[C@H](C)[C@@H](O[C@H]2C[C@@](C)(OC)[C@@H](O)[C@H](C)O2)[C@H](C)[C@@H](O[C@@H]2O[C@H](C)C[C@H](N(C)C)[C@H]2O)[C@](C)(O)C[C@@H](C)CN(C)[C@H](C)[C@@H](O)[C@]1(C)O [Azithromycin]	> 32 µg/mL

Query string: Which measured MIC value corresponds to Cc1[nH]c(C(=O)Nc2nc3ccc(C(=O)O)cc3s2)c(Cl)c1Cl [ULD1] ?
Result string: 0.5 µg/mL

Query string: Now give it for C[C@H]1COc2c(N3CCN(C)CC3)c(F)cc3c(=O)c(C(=O)O)cn1c23 [Levofloxacin] too.
Result string: 32 µg/mL

---

Items are presented alongside their recorded Time-kill bacterial count.
- Test system: S. aureus ATCC 700699 VISA
- Test protocol: Time-dependent killing
- Assay type: cell-based
- Condition info: 10xMIC; time 48 hour
- Protocol: Time-dependent killing experiments were performed as previously. S. aureus ATCC 700699 VISA cells were inoculated to MHBII agar plates and grown overnight at 37 °C. Next, 3 independent stationer-phase starter cultures were grown at 37 °C, 250 rpm overnight, in 3 × 1 mL MHBII broth. Next, 100-fold diluted cultures were prepared from each in 20 mL fresh MHBII medium and grown at 37 °C, 250 rpm until early exponential phase (OD600 = 0.3–0.4; i.e., 5 × 10^5 cells/mL). […]
The response must contain the number and no unit.

Chemical string	Target of assay	Time-kill bacterial count
Cc1[nH]c(C(=O)Nc2nc3ccc(C(=O)O)cc3s2)c(Cl)c1Cl	S. aureus ATCC 700699 VISA	1.60E+02
CC(=O)O[C@H]1C[C@@]2(C)[C@@H](C[C@@H](O)[C@H]3[C@@]4(C)CC[C@@H](O)[C@@H](C)[C@@H]4CC[C@@]32C)/C1=C(\CCC=C(C)C)C(=O)O	S. aureus ATCC 700699 VISA	1.70E+04
CN[C@H](CC(C)C)C(=O)N[C@H]1C(=O)N[C@@H](CC(N)=O)C(=O)N[C@H]2C(=O)N[C@H]3C(=O)N[C@H](C(=O)N[C@H](C(=O)O)c4cc(O)cc(O)c4-c4cc3ccc4O)[C@H](O)c3ccc(c(Cl)c3)Oc3cc2cc(c3O[C@@H]2O[C@H](CO)[C@@H](O)[C@H](O)[C@H]2O[C@H]2C[C@](C)(N)[C@H](O)[C@H](C)O2)Oc2ccc(cc2Cl)[C@H]1O	S. aureus ATCC 700699 VISA	5.30E+01
CO[C@@H]1[C@@H](OC(N)=O)[C@@H](O)[C@H](Oc2ccc3c(O)c(NC(=O)c4ccc(O)c(CC=C(C)C)c4)c(=O)oc3c2C)OC1(C)C	S. aureus ATCC 700699 VISA	6.40E+02

Kindly review the next compound as well.
Query string: Form field: reported Time-kill bacterial count of Cc1[nH]c(C(=O)Nc2nc3c(OCc4ccccc4)cc(C(=O)O)cc3s2)c(Cl)c1Cl
Result string: 1.70E+01

---

- Test system: S. aureus clinical isolates
- Test protocol: microbe, parasite or virus in culture
- Format: cell-based
- Condition info: Staphylococcus aureus, MSSA, S. aureus IHMA 1604609, MSSA / VSSA; read-out: MIC
Readout type: MIC (µg/mL)
All answers are understood in µg/mL, so give the number only.

Please review the following examples before continuing.
Molecule	Target of assay	MIC (µg/mL)
CC[C@H]1OC(=O)[C@H](C)[C@@H](O[C@H]2C[C@@](C)(OC)[C@@H](O)[C@H](C)O2)[C@H](C)[C@@H](O[C@@H]2O[C@H](C)C[C@H](N(C)C)[C@H]2O)[C@](C)(O)C[C@@H](C)CN(C)[C@H](C)[C@@H](O)[C@]1(C)O [Azithromycin]	S. aureus clinical isolates	1
Cc1[nH]c(C(=O)Nc2nc3c(OCc4ccccc4)cc(C(=O)O)cc3s2)c(Cl)c1Cl [ULD2]	S. aureus clinical isolates	0.5
C[C@H]1COc2c(N3CCN(C)CC3)c(F)cc3c(=O)c(C(=O)O)cn1c23 [Levofloxacin]	S. aureus clinical isolates	0.25
Cc1[nH]c(C(=O)Nc2nc3ccc(C(=O)O)cc3s2)c(Cl)c1Cl [ULD1]	S. aureus clinical isolates	0.5
Cc1onc(-c2ccccc2)c1C(=O)N[C@@H]1C(=O)N2[C@@H]1SC(C)(C)[C@@H]2C(=O)O [Oxacillin]	S. aureus clinical isolates	0.25

In the following, a different molecule is considered.
Query string: Recorded MIC of CC(=O)NC[C@H]1CN(c2ccc(N3CCOCC3)c(F)c2)C(=O)O1 [Linezolid] , please.
Result string: 2

---

# MIC annotations
- Test system: S. aureus clinical isolates
- Test protocol: microbe, parasite or virus in culture
- Assay type: cell-based
- Condition info: Staphylococcus aureus, MRSA / NRS 3 / VISA, S. aureus IHMA 1308243, NRS3, MRSA / VISA; read-out: MIC
State just the number; it will be interpreted in µg/mL.

Query string: Recorded MIC for Cc1[nH]c(C(=O)Nc2nc3ccc(C(=O)O)cc3s2)c(Cl)c1Cl [ULD1] , please?
Result string: 1

---

- Tested on: S. aureus clinical isolates
- Test protocol: microbe, parasite or virus in culture
- Format: cell-based
- Condition info: Staphylococcus aureus, MRSA, S. aureus IHMA 1766357, MRSA / VSSA; read-out: MIC
List of MIC values.
Value expressed in µg/mL; do not type the unit.

As a guide, the following entries are already answered.
Chemical string	Display unit	MIC
CC(=O)NC[C@H]1CN(c2ccc(N3CCOCC3)c(F)c2)C(=O)O1	µg/mL	4
Cc1onc(-c2ccccc2)c1C(=O)N[C@@H]1C(=O)N2[C@@H]1SC(C)(C)[C@@H]2C(=O)O	µg/mL	32

Shifting focus to the compound that follows.
Query string: Can you share its MIC? I mean this compound: CC[C@H]1OC(=O)[C@H](C)[C@@H](O[C@H]2C[C@@](C)(OC)[C@@H](O)[C@H](C)O2)[C@H](C)[C@@H](O[C@@H]2O[C@H](C)C[C@H](N(C)C)[C@H]2O)[C@](C)(O)C[C@@H](C)CN(C)[C@H](C)[C@@H](O)[C@]1(C)O
Result string: 1
